GI50 values for the compounds below.
system: HCT-15
Give the value, in units of µM, as a plain number.

| compound | GI50, µM |
| --- | --- |
| CC(C)C(NC(=O)C(Cc1ccccc1)NC(=O)[C@H]1CCC[C@H]1NC(=O)C(Cc1ccc(OC(C)(C)C)cc1)NC(=O)OC(C)(C)C)C(N)=O (stereo not given in full) | 36.1 |
| CC1=C2CC(C)(C)/C=C\C(=O)/C(C)=C\C3=C[C@H](C)C[C@]3(O2)C1=O | 0.627 |
| O=[N+]([O-])c1cccc2nc3ccccc3c(NCCCN3CCCCC3)c12 | 0.0158 |
| CC(C)CN1CN(c2ccccc2)C2(CCN(CC(C)(c3ccc(F)cc3)C3OCCO3)CC2)C1=O (stereo not given) | 3.27 |
| COC(=O)c1cc2c3c(ccc2[nH]1)N(C(=O)c1cc2cc(OC)c(OC)c(OC)c2[nH]1)CC3CCl (stereo not given) | 5.71 |

CC(C)C(Nc1c2ccccc2[n+]([O-])c2ccccc12)C(=O)O (stereo not given) tested on HCT-15 gave GI50: 45.9

// assay HCT-15, entry N=c1oc2ccc(Cl)cc2cc1C(N)=O , GI50 value = 29.4

The measured GI50 that Oc1cc(-c2cccc3ccccc23)nc2ncccc12 showed for HCT-15 is 0.00627

Observed GI50, HCT-15, COc1ccc2c(c1)-c1nc(=S)n(CCN(C)C)c3ccc([N+](=O)[O-])c(c13)N2 : 0.731

Per the reported HCT-15 data, COc1cc(C2c3[nH]c4ccc(F)cc4c3C[C@H]3COC(=O)N23)cc(OC)c1O (stereo not given in full) has GI50 of 8.69

* * *

test system: HL-60; assay: NCI tumour cell line growth inhibition, 48 h
Active and inactive are the calls of the source. Cut-off read from the data, not from the text of the source: active = GI50 up to about 1.1 µM and inactive = higher.
Here, each record is paired with measured GI50 data.

| molecule | recorded-endpoint | result |
| --- | --- | --- |
| CC(C)(C)C(=O)N1CCN(C=O)C1=S | GI50 | 47.3 µM (inactive) |
| CCOc1ccncc1[N+](=O)[O-] | GI50 | > 100 µM (inactive) |
| C=C(Cl)C(C)(Cl)CCC(Cl)C(C)C (stereo unspecified) | GI50 | 44.3 µM (inactive) |
| CNC(C)C(O)c1ccc2oc3cc(=O)c4ccccc4c-3nc2c1 (stereo unspecified) | GI50 | 21.8 µM (inactive) |
| C[N+]1(CCCl)CC[N+](C)(CCCl)CC1 (stereo unspecified) | GI50 | 28.8 µM (inactive) |

Given the molecule O=C1c2ccccc2/C(=N\c2ccc3ccccc3c2)C1(C1=C(c2ccccc2)/C(=N/c2ccc3ccccc3c2)c2ccccc21)c1ccccc1 (stereo unspecified) and test system HL-60, the measured GI50 is 4.5 µM (inactive)

* * *

test system: DMS-114; test: NCI tumour cell line growth inhibition, 48 h
Active and inactive are the calls of the source. Cut-off read from the data, not from the text of the source: active = GI50 up to about 1.1 µM and inactive = higher.
Recorded GI50 for the following compounds

| compound | GI50 |
| --- | --- |
| NC(=O)c1ncn(C2OC(CO)C(O)C2O)c1NC(=S)NC(=O)c1ccccc1 (stereo unspecified) | > 100 µM (inactive) |
| CC1=C(Oc2ccccc2)C(CCC(=O)O)c2c(O)cc(Cl)c(O)c21 (stereo unspecified) | > 100 µM (inactive) |
| OC12c3ccccc3C1CCCCC2N1CCCC1 (stereo unspecified) | > 100 µM (inactive) |

response.value for CCOc1ccc(NC(=O)/C(Cc2nc3ccccc3nc2O)=N\O)cc1 (field: GI50) = > 100 µM (inactive)

Data point: COCOCCC#CCO ; GI50 = > 100 µM (inactive)

GI50 measured on C[C@@]12CC[C@H]3[C@@H]4CCC(=O)N[C@@]4(C)CC[C@@H]3[C@@]1(C)CC[C@H](OC(=O)Cc1ccc(N(CCCl)CCCl)cc1)C2 = 15 µM (inactive)

Entry CC(C)(C)c1cc(Oc2ccc(C#N)c(C#N)c2)cc(C(C)(C)C)c1 — recorded GI50 = 42.1 µM (inactive)

Entry under test: CCCCCCNC(=O)CCN(C(=O)O)S(=O)(=O)c1ccc(NC(=O)c2ccccc2)cc1 . Its GI50 was 20.4 µM (inactive)

# GI50 (compound: O=CC1CCC=CC1NC(=O)OCc1ccccc1 (stereo unspecified) ) is 22.7 µM (inactive)

Looking up CC(C)C(Nc1c2ccccc2[n+]([O-])c2ccccc12)C(=O)O (stereo unspecified) , I found its GI50 recorded as 36.2 µM (inactive)

Reported GI50 of O=C(C(=O)c1cc2ccccc2[nH]1)c1cc2ccccc2[nH]1 : > 220 µM (inactive)
